Target: T1, human GLP-1 receptor (human, UniProt P43220 24-463)
T1 construct: whole, on cells; Used as purified membranes of the transfected hamster cells, not whole cells; also called hGLP-1
Test: SPA, 2.0% vs 0.005% HSA
Description: A shift in the binding affinity, $IC50$, is an indication that the derivative in question binds to albumin, and thereby a prediction of a potential protracted pharmacokinetic profile of the derivative in question in animal models. 25 ul (microliter) of test compounds are added to Optiplate. HSA ("high albumin" experiment containing 2% HSA), or buffer ("low albumin" experiment containing 0.005% HSA), was added (50 ul). […] The plates were centrifuged (1500 rpm, 10 min) and counted in Topcounter.
*1 amine or outer side, *2 acyl side, *3 side chain or, on linkers, in order; H or OH if unused. Where no end group is shown, it is not given here. Side-chain parts run from the residue outwards. [ ]: non-standard residue; d: D form. The star is where a group is joined. 9‑(4-carboxyphenoxy)nonanoyl = O=C(O)c1ccc(OCCCCCCCCC(=O)*)cc1; 8‑(4-carboxyphenoxy)octanoyl = O=C(O)c1ccc(OCCCCCCCC(=O)*)cc1; Decanoyl(10-(4-HOOC-PhO)) = O=C(O)c1ccc(OCCCCCCCCCC(=O)*)cc1; γGlu = O=C(O)[C@H](CCC(=O)[*:2])N[*:1]; 13‑carboxytridecanoyl = C14 diacid; Butanoyl(4-Ph) = O=C(CCCc1ccccc1)*; AEEA = NCCOCCOCC(=O)O; Aib = CC(C)(N)C(=O)O; Aoc = NCCCCCCCC(=O)O
parameter measured: ratio IC50 high HSA/IC50 low HSA

Some entries whose results are on file:
binder: HAEGTFTSDVSK([AEEA-AEEA-γGlu-13‑carboxytridecanoyl])YLEGQAVREFIAK([AEEA-AEEA-γGlu-13‑carboxytridecanoyl])LVRGRG [GLP-1 derivative of Example 77: [Lys18,Val25,Arg26,Lys31,Arg34]-GLP-1-(7-37)-peptide]
obs value: > 1

binder: H[Aib]EGTFTSDVSK([AEEA-AEEA-γGlu-Aoc-γGlu-Butanoyl(4-Ph)])YLEEQAAK([AEEA-AEEA-γGlu-Aoc-γGlu-Butanoyl(4-Ph)])EFIAWLVQGRG [GLP-1 derivative of Example 109: [Aib8,Lys18,Glu22,Gln34]-GLP-1-(7-37)-peptide]
obs value: > 1

For each of the binders below, state ratio IC50 high HSA/IC50 low HSA.
1. HAEGTFTSDVSK([AEEA-AEEA-γGlu-13‑carboxytridecanoyl])YLEEQAVRK([AEEA-AEEA-γGlu-13‑carboxytridecanoyl])FIAWLVQGRG [GLP-1 derivative of Example 48: [Lys18,Glu22,Val25,Arg26,Lys27,Gln34]-GLP-1-(7-37)-peptide]
2. HAEGTFTSDVSK([AEEA-AEEA-γGlu-Decanoyl(10-(4-HOOC-PhO))])YLEEQAVRK([AEEA-AEEA-γGlu-Decanoyl(10-(4-HOOC-PhO))])FIAWLVQGRG [GLP-1 derivative of Example 42: [Lys18,Glu22,Val25,Arg26,Lys27,Gln34]-GLP-1-(7-37)-peptide]
3. H[Aib]EGTFTSDVSK([AEEA-AEEA-γGlu-8‑(4-carboxyphenoxy)octanoyl])YLEEQAAK([AEEA-AEEA-γGlu-8‑(4-carboxyphenoxy)octanoyl])EFIAWLVQGRG [GLP-1 derivative of Example 87: [Aib8,Lys18,Glu22,Gln34]-GLP-1-(7-37)-peptide]
4. HAEGTFTSDVSK([AEEA-AEEA-γGlu-13‑carboxytridecanoyl])YLEEEAVRK([AEEA-AEEA-γGlu-13‑carboxytridecanoyl])FIAWLVQGRG [GLP-1 derivative of Example 58: [Lys18,Glu22,Glu23,Val25,Arg26,Lys27,Gln34]-GLP-1-(7-37)-peptide]

["> 1", "> 1", "> 1", "> 1"]

For each of the binders below, state ratio IC50 high HSA/IC50 low HSA.
1. HAEGTFTSDVSK([AEEA-AEEA-γGlu-8‑(4-carboxyphenoxy)octanoyl])YLEEQAAK([AEEA-AEEA-γGlu-8‑(4-carboxyphenoxy)octanoyl])EFIAWLVQGRG [GLP-1 derivative of Example 89: [Lys18,Glu22,Gln34]-GLP-1-(7-37)-peptide]
2. H[Aib]EGTFTSDVSK([AEEA-AEEA-γGlu-13‑carboxytridecanoyl])YLEGQAVREFIAK([AEEA-AEEA-γGlu-13‑carboxytridecanoyl])LVRGRG [GLP-1 derivative of Example 112: [Aib8,Lys18,Val25,Arg26,Lys31,Arg34]-GLP-1-(7-37)-peptide]
3. H[Aib]EGTFTSDVSK([AEEA-γGlu-AEEA-Decanoyl(10-(4-HOOC-PhO))])YLEEQAAK([AEEA-γGlu-AEEA-Decanoyl(10-(4-HOOC-PhO))])EFIAWLVQGRG [GLP-1 derivative of Example 90: [Aib8,Lys18,Glu22,Gln34]-GLP-1-(7-37)-peptide]
4. H[Aib]EGTFTSDVSK([AEEA-AEEA-AEEA-AEEA-γGlu-Decanoyl(10-(4-HOOC-PhO))])YLEEQAAK([AEEA-AEEA-AEEA-AEEA-γGlu-Decanoyl(10-(4-HOOC-PhO))])EFIAWLVQGRG [GLP-1 derivative of Example 69: [Aib8,Lys18,Glu22,Gln34]-GLP-1-(7-37)-peptide]
5. HXEGTFTSDVSKYLEGQAAKEFIAWLVRGRG (Aib8; Lys18 and Lys26 each Nε-acylated with 10-(4-carboxyphenoxy)decanoyl-OEG-OEG-gGlu) [GLP-1 derivative of Example 115: [Aib8,Lys18,Arg34]-GLP-1-(7-37)-peptide]
6. H[Aib]EGTFTSDVSK([AEEA-AEEA-γGlu-Decanoyl(10-(4-HOOC-PhO))])YLEGQAAK([AEEA-AEEA-γGlu-Decanoyl(10-(4-HOOC-PhO))])EFIAWLVQGRG [GLP-1 derivative of Example 92: [Aib8,Lys18,Gln34]-GLP-1-(7-37)-peptide]
7. HAEGTFTSDVSK([AEEA-AEEA-AEEA-AEEA-γGlu-13‑carboxytridecanoyl])YLEEQAVREFIAK([AEEA-AEEA-AEEA-AEEA-γGlu-13‑carboxytridecanoyl])LVRGRG [GLP-1 derivative of Example 98: [Lys18,Glu22,Val25,Arg26,Lys31,Arg34]-GLP-1-(7-37)-peptide]
8. HAEGTFTSDVSK([AEEA-AEEA-γGlu-9‑(4-carboxyphenoxy)nonanoyl])YLEEQAARK([AEEA-AEEA-γGlu-9‑(4-carboxyphenoxy)nonanoyl])FIAHLVG [GLP-1 derivative of Example 64: [Lys18,Glu22,Arg26,Lys27,His31,Gly34]-GLP-1-(7-34)-peptide]

1. > 1
2. > 1
3. > 1
4. > 1
5. > 1
6. > 1
7. > 1
8. > 1

Entry H[Aib]EGTFTSDVSK([AEEA-AEEA-AEEA-AEEA-AEEA-AEEA-γGlu-13‑carboxytridecanoyl])YLEEQAVREFIAK([AEEA-AEEA-AEEA-AEEA-AEEA-AEEA-γGlu-13‑carboxytridecanoyl])LVRGRG [GLP-1 derivative of Example 131: [Aib8,Lys18,Glu22,Val25,Arg26,Lys31,Arg34]-GLP-1-(7-37)-peptide] has what ratio IC50 high HSA/IC50 low HSA?
> 1
